# protocol text: qHTS assay to identify small molecule phospholipidosis (PLD) inducers (AID 1259344)
# run conditions: HepG2 phospholipidosis, LipidTOX Red imaging, 24 h; series mostly up to 38.3 µM
Results filed as inconclusive are left out. Activity calls are given as the source filed them. The call rests on the fitted dose curve; in most records, active means well fitted activation curve with a large enough effect; inconclusive means small, poorly fitted or top-dose-only effect; inactive means flat fitted curve, though single readings scatter.
experimental readout: PLD induction

INSERT INTO assay_data (compound, val) VALUES
  ('CCOc1ccc(NC(=S)Nc2ccc(OCC)cc2)cc1', 'inactive'),
  ('CC1(C)CCC(NC(=O)[C@@H](N)CCC(=O)O)CC1', 'inactive'),
  ('CCCCCCCCCCCCCC(=O)OCC(COP(=O)([O-])OCC[N+](C)(C)C)OC(=O)CCCCCCCCCCCCC (centres undefined)', 'inactive'),
  ('CC1CCCC(C)N1NC(=O)c1ccc(Cl)c(S(N)(=O)=O)c1 (centres undefined)', 'inactive');

meta.source: PubChem BioAssay (Tox21)
